molecular target: PAI-1 (Homo sapiens, UniProt P05121); test: PAI chromogenic substrate assay (first S2251 assay, tPA/plasminogen system); format: biochemical; conditions: Concentration 30 μm
Sequence (P05121 24-402): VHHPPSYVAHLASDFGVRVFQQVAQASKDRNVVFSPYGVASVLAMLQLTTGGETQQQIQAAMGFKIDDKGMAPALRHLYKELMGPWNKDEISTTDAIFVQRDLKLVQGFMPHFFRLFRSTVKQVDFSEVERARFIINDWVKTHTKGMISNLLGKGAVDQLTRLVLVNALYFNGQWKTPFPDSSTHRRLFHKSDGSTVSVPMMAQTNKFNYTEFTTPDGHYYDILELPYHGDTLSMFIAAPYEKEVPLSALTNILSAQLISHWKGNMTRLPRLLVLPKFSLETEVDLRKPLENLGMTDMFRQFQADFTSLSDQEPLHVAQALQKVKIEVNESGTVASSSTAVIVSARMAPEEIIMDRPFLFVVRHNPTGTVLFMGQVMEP
Tag: 1 if measured Inhibition of PAI-1 in the first S2251 chromogenic substrate assay is not below 70%, 0 if it is.

Task: Does O=c1[nH]/c(=C\c2cccc([N+](=O)[O-])c2)c(=O)[nH]/c1=C\c1ccccc1 have a reported Inhibition of PAI-1 in the first S2251 chromogenic substrate assay of at least 70%?
Output: 0

Task: Inhibition of PAI-1 in the first S2251 chromogenic substrate assay >= 70% for CC(=O)Nc1ccc(/C=c2\[nH]c(=O)/c(=C/c3ccc(F)cc3)[nH]c2=O)cc1 ?
Output: 1

Task: Inhibition of PAI-1 in the first S2251 chromogenic substrate assay >= 70% for CC(=O)Nc1ccc(/C=c2\[nH]c(=O)/c(=C/c3ccccc3)[nH]c2=O)cc1 ?
Output: 1

Task: Inhibition of PAI-1 in the first S2251 chromogenic substrate assay >= 70% for CC(=O)Nc1ccc(/C=c2\[nH]c(=O)/c(=C/c3ccccc3F)[nH]c2=O)cc1 ?
Output: 0

Task: Form field: Inhibition of PAI-1 in the first S2251 chromogenic substrate assay at least 70%? Entry: CC(=O)Nc1ccc(/C=c2\[nH]c(=O)/c(=C/c3ccc(Cl)cc3)[nH]c2=O)cc1
Output: 0

Task: Hi, just wondering whether CC(=O)Oc1ccc(/C=c2\[nH]c(=O)/c(=C/c3ccccc3)[nH]c2=O)cc1 shows Inhibition of PAI-1 in the first S2251 chromogenic substrate assay of 70% or higher.
Output: 0

Task: Has O=c1[nH]/c(=C\c2cccc(CS)c2)c(=O)[nH]/c1=C\c1ccccc1 a recorded Inhibition of PAI-1 in the first S2251 chromogenic substrate assay greater than or equal to 70%?
Output: 1

====

target: PAI-1 (Homo sapiens); experiment: PAI chromogenic substrate assay (first S2251 assay, tPA/plasminogen system); format: biochemical; settings: Concentration 15 μm
Could you please report measured Inhibition of PAI-1 in the first S2251 chromogenic substrate assay for the items listed next?
I only need the number, in %, no unit after it.

Item CC(=O)Oc1ccc(/C=c2\[nH]c(=O)/c(=C/c3ccccc3)[nH]c2=O)cc1 [Compound 23] was tested on PAI-1 (Homo sapiens); the reported Inhibition of PAI-1 in the first S2251 chromogenic substrate assay is 0

Record for O=c1[nH]/c(=C\c2cccc([N+](=O)[O-])c2)c(=O)[nH]/c1=C\c1ccccc1 [Compound 24] under target or system PAI-1 (Homo sapiens): Inhibition of PAI-1 in the first S2251 chromogenic substrate assay reported as 0

Observed Inhibition of PAI-1 in the first S2251 chromogenic substrate assay, PAI-1 (Homo sapiens), CC(=O)Nc1ccc(/C=c2\[nH]c(=O)/c(=C/c3ccccc3F)[nH]c2=O)cc1 [Compound 71] : 51

Form field Inhibition of PAI-1 in the first S2251 chromogenic substrate assay for item CC(=O)Nc1ccc(/C=c2\[nH]c(=O)/c(=C/c3ccccc3)[nH]c2=O)cc1 [Compound 34] on PAI-1 (Homo sapiens): 76

====

Molecular target: PAI-1 (Homo sapiens, UniProt P05121)
Assay: PAI chromogenic substrate assay (first S2251 assay, tPA/plasminogen system)
Assay type: biochemical
Settings: Concentration 6.25 μm
Experimental: In this assay, a compound is incubated with PAI-1 prior to addition to the tPA assay system. Inhibition of PAI-1 results in the production of plasmin from plasminogen. In turn, plasmin cleaves the chromogenic substrate S2251 (Kabi Vitrum) producing pNA (p-nitroaniline) which is detected spectrophotometrically at 405 nm (K. Nilsson et al, Fibrinolysis (1987) 1, 163-168). Compounds of formula (A) were tested in a PAI chromogenic substrate assay. […]
Exercise: for every item that follows, state its recorded Inhibition of PAI-1 in the first S2251 chromogenic substrate assay.
Record the result as a number with its unit.

Reported Inhibition of PAI-1 in the first S2251 chromogenic substrate assay ( Nc1ccccc1/C=c1\[nH]c(=O)/c(=C/c2ccccc2)[nH]c1=O [Compound 39] ) = 0%

Entry CC(=O)Nc1ccccc1/C=c1\[nH]c(=O)/c(=C/c2ccccc2)[nH]c1=O [Compound 38] — recorded Inhibition of PAI-1 in the first S2251 chromogenic substrate assay = 1%

Quick note, Inhibition of PAI-1 in the first S2251 chromogenic substrate assay for O=c1[nH]c(=Cc2ccccc2)c(=O)[nH]c1=Cc1ccccc1 [Compound 22, 3,6-Dibenzylidene-2,5-piperazinedione] landed at 0%

The compound listed as COc1ccc(/C=c2\[nH]c(=O)/c(=C/c3ccc(N(C)C(C)=O)cc3)[nH]c2=O)cc1 [Compound 41] shows Inhibition of PAI-1 in the first S2251 chromogenic substrate assay equal to 3%

Data provenance is patent US5700804A.
